Assay: Compound solubility determination (gross and equilibrium solubility; FaSSIF, FeSSIF, pH 7.4 PBS, pH 1.0 0.1N HCl, pH 4.5 sodium citrate)
Format: physicochemical
Conditions: phosphate buffered saline (PBS), aqueous buffer, thermodynamic from solid; pH 7.4 (PBS); read-out: Solubility at pH 7.4 (PBS)
Assignment: determine reported solubility at 24 h for the given molecules.

Data request: Entry CCCCc1ccc(-c2ccc(-c3c(C)[nH]c(C)c(Br)c3=O)cn2)cc1 [Example 26] : reported solubility at 24 h = ?
Data returned: < 1 µg/mL

Data request: Entry Cc1[nH]c(C)c(-c2ccc(-c3ccc(F)cc3)nc2)c(=O)c1Cl [Example 36] : reported solubility at 24 h = ?
Data returned: 1 to 5 µg/mL

Data request: Entry Cc1[nH]c(C)c(-c2ccc(-c3ccc(C(F)(F)F)cc3F)nc2)c(=O)c1Cl [Example 58] : reported solubility at 24 h = ?
Data returned: < 1 µg/mL

---

Assignment: determine reported solubility at 24 h for the given compounds.
Assay: Compound solubility determination (gross and equilibrium solubility; FaSSIF, FeSSIF, pH 7.4 PBS, pH 1.0 0.1N HCl, pH 4.5 sodium citrate)
Assay type: physicochemical
Conditions: FaSSIF (fasted state simulated intestinal fluid), fassif, thermodynamic from solid; read-out: Solubility in FaSSIF

Data request: Entry Cc1[nH]c(C)c(-c2ccc(-c3ccc(F)cc3)nc2)c(=O)c1Cl [Example 36] : reported solubility at 24 h = ?
Data returned: 1 to 5 µg/mL

Data request: Entry Cc1[nH]c(C)c(-c2ccc(Oc3ccc(OC(F)(F)F)cc3)cc2)c(=O)c1Cl [comparator Y] : reported solubility at 24 h = ?
Data returned: < 1 µg/mL

Data request: Entry Cc1[nH]c(C)c(-c2ccc(-c3ccccc3F)nc2)c(=O)c1Cl [Example 37] : reported solubility at 24 h = ?
Data returned: 10 to 50 µg/mL

Data request: Entry Cc1[nH]c(C)c(-c2ccc(-c3ccc(C(F)(F)F)cc3F)nc2)c(=O)c1Cl [Example 58] : reported solubility at 24 h = ?
Data returned: < 1 µg/mL

Data request: Entry Cc1[nH]c(C)c(-c2ccc(-c3ccc(F)cc3)nc2)c(=O)c1Br [Example 22] : reported solubility at 24 h = ?
Data returned: 1 to 5 µg/mL

Data request: Entry Cc1[nH]c(C)c(-c2ccc(-c3cc(C(F)(F)F)cc(C(F)(F)F)c3)nc2)c(=O)c1Br [Example 25] : reported solubility at 24 h = ?
Data returned: < 1 µg/mL

Data request: Entry Cc1[nH]c(C)c(-c2ccc(-c3ccc(C(F)(F)F)cc3)nc2)c(=O)c1Br [Example 16] : reported solubility at 24 h = ?
Data returned: < 1 µg/mL

Data request: Entry Cc1[nH]c(C)c(-c2ccc(-c3cc(C(F)(F)F)ccc3F)nc2)c(=O)c1Cl [Example 56] : reported solubility at 24 h = ?
Data returned: 1 to 5 µg/mL

---

Experiment: Compound solubility determination (gross and equilibrium solubility; FaSSIF, FeSSIF, pH 7.4 PBS, pH 1.0 0.1N HCl, pH 4.5 sodium citrate)
Format: physicochemical
Settings: 0.1N HCl solution, simulated gastric fluid, thermodynamic from solid; pH 1 (HCl); read-out: Solubility at pH 1 (HCl)
Value Type: solubility at 24 h

Data request: Entry Cc1[nH]c(C)c(-c2ccc(Oc3ccc(OC(F)(F)F)cc3)nc2)c(=O)c1Cl : reported solubility at 24 h = ?
Data returned: 5 to 10 µg/mL

Data request: Entry CCCCCCCc1ccc(-c2c(C)[nH]c(C)c(Cl)c2=O)cn1.Cl : reported solubility at 24 h = ?
Data returned: ≥ 50 µg/mL

Data request: Entry Cc1nc(C)c(-c2ccc(-c3ccc(Cl)cc3)cc2)c(O)c1Br : reported solubility at 24 h = ?
Data returned: < 1 µg/mL

Data request: Entry Cc1[nH]c(C)c(-c2ccc(-c3cccc(C(F)(F)F)c3)nc2)c(=O)c1Br : reported solubility at 24 h = ?
Data returned: ≥ 50 µg/mL

Data request: Entry Cc1[nH]c(C)c(-c2ccc(-c3ccc(F)cc3)nc2)c(=O)c1Br : reported solubility at 24 h = ?
Data returned: ≥ 50 µg/mL

Data request: Entry Cc1[nH]c(C)c(-c2ccc(-c3ccc(C(F)(F)F)cc3F)nc2)c(=O)c1Cl : reported solubility at 24 h = ?
Data returned: 10 to 50 µg/mL

Data request: Entry Cc1[nH]c(C)c(-c2ccc(-c3cccc(Cl)c3)nc2)c(=O)c1Br : reported solubility at 24 h = ?
Data returned: ≥ 50 µg/mL

Data request: Entry Cc1[nH]c(C)c(-c2ccc(-c3cc(C(F)(F)F)cc(C(F)(F)F)c3)nc2)c(=O)c1Br : reported solubility at 24 h = ?
Data returned: 1 to 5 µg/mL

---

Test: Compound solubility determination (gross and equilibrium solubility; FaSSIF, FeSSIF, pH 7.4 PBS, pH 1.0 0.1N HCl, pH 4.5 sodium citrate)
Format: physicochemical
Details: phosphate buffered saline (PBS), aqueous buffer, thermodynamic from solid; pH 7.4 (PBS); read-out: Solubility at pH 7.4 (PBS)
Value Type: solubility at 24 h

Data request: Entry Cc1[nH]c(C)c(-c2ccc(-c3cccc(Cl)c3)nc2)c(=O)c1Br [Example 20] : reported solubility at 24 h = ?
Data returned: < 1 µg/mL

Data request: Entry Cc1[nH]c(C)c(-c2ccc(-c3ccc4c(c3)OCO4)nc2)c(=O)c1Br [Example 53] : reported solubility at 24 h = ?
Data returned: 1 to 5 µg/mL

Data request: Entry Cc1[nH]c(C)c(-c2ccc(-c3ccc(C(F)(F)F)cc3)nc2)c(=O)c1Br [Example 16] : reported solubility at 24 h = ?
Data returned: < 1 µg/mL

Data request: Entry CCCCCCCc1ccc(-c2c(C)[nH]c(C)c(Cl)c2=O)cn1.Cl [Example 48] : reported solubility at 24 h = ?
Data returned: 1 to 5 µg/mL

Data request: Entry Cc1[nH]c(C)c(-c2ccc(-c3ccc(F)cc3)nc2)c(=O)c1Br [Example 22] : reported solubility at 24 h = ?
Data returned: 1 to 5 µg/mL

Data request: Entry Cc1[nH]c(C)c(-c2ccc(-c3cc(C(F)(F)F)ccc3F)nc2)c(=O)c1Cl [Example 56] : reported solubility at 24 h = ?
Data returned: < 1 µg/mL

Data request: Entry Cc1[nH]c(C)c(-c2ccc(-c3ccc(C(F)(F)F)cc3C(F)(F)F)nc2)c(=O)c1Br [Example 24] : reported solubility at 24 h = ?
Data returned: < 1 µg/mL

Data request: Entry Cc1[nH]c(C)c(-c2ccc(CCc3ccc(C(F)(F)F)cc3)nc2)c(=O)c1Cl [Example 45] : reported solubility at 24 h = ?
Data returned: 5 to 10 µg/mL

Data request: Entry Cc1[nH]c(C)c(-c2ccc(Oc3ccc(OC(F)(F)F)cc3)cc2)c(=O)c1Cl [comparator Y] : reported solubility at 24 h = ?
Data returned: < 1 µg/mL

Data request: Entry Cc1nc(C)c(-c2ccc(-c3ccc(Cl)cc3)cc2)c(O)c1Br [comparator X] : reported solubility at 24 h = ?
Data returned: < 1 µg/mL

Data request: Entry Cc1[nH]c(C)c(-c2ccc(-c3ccccc3F)nc2)c(=O)c1Cl [Example 37] : reported solubility at 24 h = ?
Data returned: 10 to 50 µg/mL

Data request: Entry Cc1[nH]c(C)c(-c2ccc(-c3ccccc3C(F)(F)F)nc2)c(=O)c1Br [Example 18] : reported solubility at 24 h = ?
Data returned: 10 to 50 µg/mL

Data request: Entry Cc1[nH]c(C)c(-c2cnc(-c3ccc(OC(F)(F)F)cc3)nc2)c(=O)c1Cl [Example 51] : reported solubility at 24 h = ?
Data returned: < 1 µg/mL

Data request: Entry Cc1[nH]c(C)c(-c2ccc(-c3ccccc3F)nc2)c(=O)c1Br [Example 23] : reported solubility at 24 h = ?
Data returned: 1 to 5 µg/mL

Data request: Entry Cc1[nH]c(C)c(-c2ccc(-c3cc(C(F)(F)F)ccc3Cl)nc2)c(=O)c1Cl [Example 57] : reported solubility at 24 h = ?
Data returned: < 1 µg/mL

Data request: Entry Cc1[nH]c(C)c(-c2ccc(-c3cccc(C(F)(F)F)c3)nc2)c(=O)c1Br [Example 17] : reported solubility at 24 h = ?
Data returned: < 1 µg/mL

Data request: Entry Cc1[nH]c(C)c(-c2ccc(CCc3cccc(C(F)(F)F)c3)nc2)c(=O)c1Cl [Example 44] : reported solubility at 24 h = ?
Data returned: 1 to 5 µg/mL

---

System: Plasmodium falciparum
Experiment: In vitro anti-malarial activity against Plasmodium falciparum, IC50 assay / [3H]-hypoxanthine incorporation assay
Format: cell-based
Details: Erythrocyte, parasitized red blood cells, 48 hours
Assignment: determine reported IC50 for the given compounds.

Data request: Entry Cc1[nH]c(C)c(-c2ccc(Oc3cccc(C(F)(F)F)c3)cc2)c(=O)c1Cl [Compound Z, reference compound] : reported IC50 = ?
Data returned: < 0.125 µg/mL

Data request: Entry Cc1[nH]c(C)c(-c2ccc(CCc3cccc(C(F)(F)F)c3)nc2)c(=O)c1Br [Example 43] : reported IC50 = ?
Data returned: < 0.125 µg/mL

Data request: Entry Cc1[nH]c(C)c(-c2ccc(-c3ccc(OC(F)(F)F)cc3)nc2)c(=O)c1Br [Example 15] : reported IC50 = ?
Data returned: < 0.125 µg/mL

Data request: Entry Cc1[nH]c(C)c(-c2ccc(-c3ccc(C(F)(F)F)cc3)nc2)c(=O)c1Cl [Example 30] : reported IC50 = ?
Data returned: < 0.125 µg/mL

Data request: Entry Cc1[nH]c(C)c(-c2ccc(CCc3ccc(C(F)(F)F)cc3)cn2)c(=O)c1Cl [Example 52] : reported IC50 = ?
Data returned: < 0.125 µg/mL

Data request: Entry Cc1[nH]c(C)c(-c2ccc(Oc3ccc(OC(F)(F)F)cc3)cc2)c(=O)c1Cl [Compound Y, reference compound] : reported IC50 = ?
Data returned: < 0.125 µg/mL

Data request: Entry CCCCc1ccc(-c2ccc(-c3c(C)[nH]c(C)c(Br)c3=O)cn2)cc1.Cl [Example 39] : reported IC50 = ?
Data returned: < 0.125 µg/mL

Data request: Entry Cc1[nH]c(C)c(-c2ccc(OCc3ccc(F)cc3)nc2)c(=O)c1Br [Example 6] : reported IC50 = ?
Data returned: < 0.125 µg/mL

Data request: Entry Cc1[nH]c(C)c(-c2ccc(-c3ccc(OC(F)(F)F)cc3)nc2)c(=O)c1Cl [Example 27] : reported IC50 = ?
Data returned: < 0.125 µg/mL

Data request: Entry CCCCCCCc1ccc(-c2c(C)[nH]c(C)c(Cl)c2=O)cn1.Cl [Example 48] : reported IC50 = ?
Data returned: < 0.125 µg/mL

Data request: Entry Cc1[nH]c(C)c(-c2ccc(-c3cccc(OC(F)(F)F)c3)nc2)c(=O)c1Cl [Example 28] : reported IC50 = ?
Data returned: < 0.125 µg/mL

Data request: Entry Cc1[nH]c(C)c(-c2ccc(OCc3ccc(C(F)(F)F)cc3)nc2)c(=O)c1Br [Example 3] : reported IC50 = ?
Data returned: < 0.125 µg/mL

Data request: Entry Cc1[nH]c(C)c(-c2ccc(-c3ccc(C(F)(F)F)cc3F)nc2)c(=O)c1Cl [Example 58] : reported IC50 = ?
Data returned: < 0.125 µg/mL

Data request: Entry Cc1[nH]c(C)c(-c2ccc(-c3ccc(F)cc3)nc2)c(=O)c1Cl [Example 36] : reported IC50 = ?
Data returned: < 0.125 µg/mL

Data request: Entry Cc1[nH]c(C)c(-c2ccc(C#Cc3ccc(C(F)(F)F)cc3)nc2)c(=O)c1Cl [Example 41] : reported IC50 = ?
Data returned: < 0.125 µg/mL

Data request: Entry Cc1[nH]c(C)c(-c2ccc(-c3cccc(C(F)(F)F)c3)nc2)c(=O)c1Br [Example 17] : reported IC50 = ?
Data returned: < 0.125 µg/mL

Data request: Entry Cc1[nH]c(C)c(-c2ccc(OCc3cc(C(F)(F)F)cc(C(F)(F)F)c3)nc2)c(=O)c1Cl [Example 12] : reported IC50 = ?
Data returned: < 0.125 µg/mL
